# tgt: Prostaglandin E2 receptor EP1 subtype (Homo sapiens)
# Sequence (P34995 whole entry): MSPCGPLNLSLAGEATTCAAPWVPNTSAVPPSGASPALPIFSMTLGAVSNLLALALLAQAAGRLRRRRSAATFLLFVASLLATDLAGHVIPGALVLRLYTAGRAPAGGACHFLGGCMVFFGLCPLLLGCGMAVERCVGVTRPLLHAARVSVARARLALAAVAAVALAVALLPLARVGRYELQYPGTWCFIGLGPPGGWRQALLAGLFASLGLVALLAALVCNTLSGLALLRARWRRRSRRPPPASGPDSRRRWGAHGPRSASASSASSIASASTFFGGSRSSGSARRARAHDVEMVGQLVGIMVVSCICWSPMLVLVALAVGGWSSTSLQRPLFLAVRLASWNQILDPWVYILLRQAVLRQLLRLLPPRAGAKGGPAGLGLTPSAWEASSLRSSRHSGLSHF
# protocol-description: Inhibition of [3H]PGE2 binding to EP1 receptor expressed in CHO cells
pIC50: −log10 of the molar value.
Reported pIC50 maps to class as: LOW = under 7, MEDIUM = from 7 up to 8, HIGH = 8 and over

Cc1ccc(-c2cc(Br)ccc2OCc2cccc(C(F)(F)F)c2)n1-c1cccc(C(=O)O)c1 : LOW
O=C(O)c1cccc(-n2c(-c3cc(Cl)ccc3OCc3ccc(F)cc3)ccc2C(F)(F)F)c1 : LOW
Cc1ccc(-c2cc(Cl)ccc2OCC2CCCO2)n1-c1cccc(C(=O)O)c1 (stereo not drawn) : MEDIUM
Cc1ccc(-c2cc(Br)ccc2OCc2ccc(Cl)cc2Cl)n1-c1cccc(C(=O)O)c1 : HIGH
Cc1ccc(-c2ccccc2OCc2ccccc2)n1-c1cccc(C(=O)O)c1 : MEDIUM
Cc1ccc(-c2cc(Cl)ccc2OCC2CCCC2)n1-c1cccc(C(=O)O)c1 : MEDIUM
Cc1ccc(-c2cc(S(C)(=O)=O)ccc2OCc2ccccc2)n1-c1cccc(C(=O)O)c1 : MEDIUM
Cc1c(Br)cc(-c2cc(Cl)ccc2OCc2ccccc2)n1-c1cccc(C(=O)O)c1 : LOW
Cc1c(-c2ccccc2)cc(-c2cc(Cl)ccc2OCc2ccccc2)n1-c1cccc(C(=O)O)c1 : LOW
Cc1ccc(-c2cc(Br)ccc2OCc2c(F)cc(F)cc2F)n1-c1cccc(C(=O)O)c1 : HIGH

Which of the defined bands does the recorded pIC50 of Cc1ccc(-c2cc(Br)ccc2OCc2ccc(F)c(F)c2)n1-c1cccc(C(=O)O)c1 sit within?
HIGH

Which of the defined bands does the recorded pIC50 of Cc1ccc(-c2cc(Cl)ccc2OCC2CCOCC2)n1-c1cccc(C(=O)O)c1 sit within?
MEDIUM

Which of the defined bands does the recorded pIC50 of Cc1ccc(-c2cc(Cl)ccc2OCc2ccc(F)cc2F)n1-c1cccc(C(=O)O)c1 sit within?
HIGH

Which of the defined bands does the recorded pIC50 of Cc1ccc(-c2cc(Br)ccc2OCC(C)C)n1-c1cccc(C(=O)O)c1 sit within?
HIGH

Which of the defined bands does the recorded pIC50 of Cc1ccc(-c2cc(Br)ccc2OCc2ccc(C(F)(F)F)cc2)n1-c1cccc(C(=O)O)c1 sit within?
MEDIUM

Which of the defined bands does the recorded pIC50 of Cc1c(Cl)cc(-c2cc(Cl)ccc2OCc2ccccc2)n1-c1cccc(C(=O)O)c1 sit within?
LOW

Which of the defined bands does the recorded pIC50 of O=C(O)c1cccc(-n2c(Cl)ccc2-c2cc(Cl)ccc2OCc2ccccc2)c1 sit within?
MEDIUM

Which of the defined bands does the recorded pIC50 of Cc1ccc(-c2cc(-c3ccsc3)ccc2OCc2ccccc2)n1-c1cccc(C(=O)O)c1 sit within?
LOW

Which of the defined bands does the recorded pIC50 of Cc1ccc(-c2cc(C(F)(F)F)ccc2OCc2ccccc2)n1-c1cccc(C(=O)O)c1 sit within?
HIGH
